# protocol description: solvent given as SMILES
# particulars: in Cc1cccc(C)c1
quantity kind: solvation free energy, 298 K (kcal/mol)
Give your result in kcal/mol as a bare value.

Note to self: solvation free energy, 298 K recorded for "Oc1ccc(O)cc1" was -8.88

***
Given item "O=[N+]([O-])c1cc(Cl)ccc1Cl" , the value recorded as its solvation free energy, 298 K is -9.25

# compound "C=C" ; its solvation free energy, 298 K = -0.61

* * *

# protocol description: solvent given as SMILES
# particulars: in CCCCCCC
quantity kind: solvation free energy, 298 K (kcal/mol)
Respond numerically; units are kcal/mol and should not be typed.

Observe how each entry below is paired with its result.
The compound "CCCC#N" showed solvation free energy, 298 K equal to -3.68

Reported solvation free energy, 298 K of "c1ccc2c(c1)Cc1ccccc1O2" : -9.67

What the record says about "O=C(C(=O)c1ccccc1)c1ccccc1" : solvation free energy, 298 K is -10.3

Input "c1ccccc1" . Output solvation free energy, 298 K: -4

For this compound ( "O=C1CCCCC1" ), measured solvation free energy, 298 K is -5.18

The value of solvation free energy, 298 K measured for the compound "FS(F)(F)(F)(F)F" turned out to be -0.32

Lab note: measured solvation free energy, 298 K of "ClCCl" was -2.91

Now examine the next entry.
solvation free energy, 298 K reading for "CC(C)(C)Cl" : -3.47

* * *

# protocol description: solvent given as SMILES
# particulars: in CCCCCCCC
Each item that follows carries a reported solvation free energy, 298 K.
Record the value in kcal/mol, omitting the unit from your answer.

Previously resolved entries follow.
Record "Oc1cccc(Cl)c1" . Reported solvation free energy, 298 K: -6.48

Kindly note the recorded solvation free energy, 298 K for "CCCCCC(C)=O" , which is -5.25

Sure, the documented solvation free energy, 298 K for "O=C1c2ccccc2C(=O)c2c(Cl)cccc21" is -12.3

Next:
Reported solvation free energy, 298 K of "Nc1cccc2ccccc12" : -8.82

The reported solvation free energy, 298 K of the compound "CCBr" was -2.99

Quick note, solvation free energy, 298 K for "O=O" landed at 0.7

* * *

# protocol description: solvent given as SMILES
# particulars: in CC(=O)N(C)C
The label true (1) is reserved for solvation free energy, 298 K strictly under -5 kcal/mol; false (0) covers values equal to or above it.

Past entries and their recorded results:
Request: Lab note: confirm whether the reported solvation free energy, 298 K for this compound is below -5 kcal/mol, equality not counting. compound: "CC(C)CO"
Result: true (1)

Request: Is solvation free energy, 298 K of "CCCCCCCCCCCCCCCCCCCCCCCCC" strictly below -5 kcal/mol?
Result: true (1)

Request: # strict comparison: is reported solvation free energy, 298 K < -5 kcal/mol? input = "c1ccccc1"
Result: false (0)

Continuing:
Request: Consider "c1ccoc1" . Does its solvation free energy, 298 K lie strictly below -5 kcal/mol?
Result: false (0)

Request: is_below(solvation free energy, 298 K, -5 kcal/mol) for "ClC(Cl)(Cl)Cl" ?
Result: false (0)

* * *

// reported solvation free energy, 298 K for each item listed
# protocol description: solvent given as SMILES
# particulars: in OCCO
# unit: kcal/mol | format: bare number

solvation free energy, 298 K recorded for this compound, "Clc1ccccc1" , is -3.88

Lookup result for "C1CCCCC1" ; measured solvation free energy, 298 K: -1.5

What the record says about "Cc1ccccc1" : solvation free energy, 298 K is -3.02

More entries:
get_value(item= "C#CC" , readout=solvation free energy, 298 K) returns -1.22

// solvation free energy, 298 K value for "Fc1ccccc1" : -2.91

For this compound ( "C1=CCCCC1" ), measured solvation free energy, 298 K is -2

The compound "O=S=O" showed solvation free energy, 298 K equal to -2.88
